- assay: Compound was tested in vitro for chymotrypsin degradation
- Type: ADME
measure.name: half-life (min)
Please respond with the number in min and leave the unit unwritten.

// half-life value for CCNC(=O)[C@@H]1CCCN1C(=O)[C@H](CCCN=C(N)N)NC(=O)[C@H](CC(C)C)NC(=O)[C@@H](CC(C)C)NC(=O)[C@H](Cc1ccc(O)cc1)NC(=O)[C@H](CO)NC(=O)[C@H](Cc1c[nH]c2ccccc12)NC(=O)[C@H](Cc1c[nH]cn1)NC(=O)CN(C)C(C)=O : 1

###

half-life values, listed per item
- assay: Compound was tested in vitro for lumenal concentration in the rat jejunal sac to decrease by 50%.
- Format: ADME
Square brackets hold non-standard residues; d marks the D form. Peptide text beside a SMILES is read from it. 1Nal = N[C@@H](Cc1cccc2ccccc12)C(=O)O; NMeF = CN[C@@H](Cc1ccccc1)C(=O)O; pGlu = O=C1CC[C@@H](C(=O)O)N1
Please respond with the number in min and leave the unit unwritten.

Field: example entries. Status: answers known.
CCNC(=O)[C@@H]1CCCN1C(=O)[C@H](CCCN=C(N)N)NC(=O)[C@H](CC(C)C)NC(=O)[C@@H](Cc1c[nH]c2ccccc12)NC(=O)[C@H](Cc1ccc(O)cc1)NC(=O)[C@H](CO)N(C)C(=O)[C@H](Cc1c[nH]c2ccccc12)NC(=O)[C@H](Cc1cnc[nH]1)NC(=O)[C@@H]1CCC(=O)N1 :: 39.1
CCNC(=O)[C@@H]1CCCN1C(=O)[C@H](CCCN=C(N)N)NC(=O)[C@H](CC(C)C)NC(=O)[C@@H](CC(C)C)NC(=O)[C@H](Cc1ccc(O)cc1)NC(=O)[C@H](CO)NC(=O)[C@H](Cc1cccc2ccccc12)NC(=O)[C@H](Cc1c[nH]cn1)NC(=O)[C@@H]1CCC(=O)N1 ([pGlu]H[1Nal]SY[dL]LRP-NHEt) :: 25
CCNC(=O)[C@@H]1CCCN1C(=O)[C@H](CCCN=C(N)N)NC(=O)[C@H](CC(C)C)NC(=O)[C@@H](CC(C)C)NC(=O)[C@H](Cc1ccc(O)cc1)NC(=O)[C@H](CO)NC(=O)[C@H](Cc1ccc(OC)cc1)NC(=O)[C@H](Cc1c[nH]cn1)NC(=O)[C@@H]1CCC(=O)N1 :: 14.9

Now turn to the next compound.
// half-life value for CCNC(=O)[C@@H]1CCCN1C(=O)[C@H](CCCN=C(N)N)NC(=O)[C@H](CC(C)C)NC(=O)[C@@H](Cc1c[nH]c2ccccc12)NC(=O)[C@H](Cc1ccc(O)cc1)NC(=O)[C@H](CO)NC(=O)[C@H](Cc1c[nH]c2ccccc12)NC(=O)[C@H](Cc1ccccc1)N(C)C(=O)[C@@H]1CCC(=O)N1 ([pGlu][NMeF]WSY[dW]LRP-NHEt) : 44.4
